biological target: MR-LBD fused to Gal4-DBD (Homo sapiens, UniProt P08235); construct: MR-LBD was cloned by RT-PCR from total RNA isolated from HEK293 cells; expressed in transfected cells; host or cells: U2OS; assay: U2OS-MR-LBD/9xGal4UAS luciferase reporter cell line; format: cell-based
Sequence (P08235 726-964 limits assumed): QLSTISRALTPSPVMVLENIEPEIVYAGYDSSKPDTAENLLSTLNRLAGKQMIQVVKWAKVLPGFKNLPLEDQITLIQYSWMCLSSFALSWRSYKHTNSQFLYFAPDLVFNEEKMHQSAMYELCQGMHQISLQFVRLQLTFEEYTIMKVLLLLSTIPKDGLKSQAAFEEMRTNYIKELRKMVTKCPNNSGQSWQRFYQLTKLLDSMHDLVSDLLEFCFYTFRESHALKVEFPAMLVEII
pEC50: −log10 of the molar value.
Consider the following compounds and their measured pEC50 readings.
property.measured: pEC50

[[record]]
compound = "C[C@]12CC[C@H]3[C@@H](CCC4=CC(=O)CC[C@@]43C)[C@@H]1CC[C@@H]2O"
endpoint_result = "< 5.00"

[[record]]
compound = "C[C@]12CCC(=O)C[C@@H]1CC[C@@H]1[C@@H]2CC[C@]2(C)[C@@H](O)CC[C@@H]12 [Dihydrotestosterone, 5α-androstan-17β-ol-3-one]"
endpoint_result = "< 5.00"

[[record]]
compound = "O=c1c(-c2ccc(O)cc2)coc2cc(O)cc(O)c12"
endpoint_result = "< 5.00"


Just for reference, paper PMC3234597 is where these values come from.
